- target or system: T1, Rhesus-ICAM1 (rhesus, UniProt Q5NKV6 28-480, limits assumed)
- T1 sequence (looked up): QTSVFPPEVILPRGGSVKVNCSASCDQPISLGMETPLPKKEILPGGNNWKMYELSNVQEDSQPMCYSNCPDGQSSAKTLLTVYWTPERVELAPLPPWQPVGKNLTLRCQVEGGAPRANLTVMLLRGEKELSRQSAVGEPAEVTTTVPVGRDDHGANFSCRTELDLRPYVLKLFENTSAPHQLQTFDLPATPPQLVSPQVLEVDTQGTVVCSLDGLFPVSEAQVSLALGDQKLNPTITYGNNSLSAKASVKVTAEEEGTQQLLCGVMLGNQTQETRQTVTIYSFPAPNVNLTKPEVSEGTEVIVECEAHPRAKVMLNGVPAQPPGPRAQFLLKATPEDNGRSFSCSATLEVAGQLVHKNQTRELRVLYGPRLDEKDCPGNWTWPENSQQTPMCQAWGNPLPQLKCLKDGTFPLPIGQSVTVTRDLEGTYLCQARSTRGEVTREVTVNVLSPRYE
- experiment description: SPR (Biacore 8K), antibody captured, antigen injected
# key: entry, value: koff
Give the value in s⁻¹ but do not write s⁻¹ after it.

Exam item: koff lookup needed for 4H5 (antibody, human IgG1, kappa, V domains shown, Rabbit-human chimeric anti-ICAM1: rabbit VH and VL on human IgG1 and kappa constant regions) VH: QSVEESGGRLVTPGTPLTLTCTASGFSLSNYYMSWVRQAPGKGLEWIGIISDSGTTYYASWAKGRFTISKTSTTVDLKITSPTTEDTATYFCARDWSYDSSSGYYYYDMDLWGPGTLVTVSA VL: GYDMTQTPASVEVAVGGTVTIKCQASQSINSWLVWFQHKPGQPPKRLIYKASTLASGVSSRFKGSGSGTHFTLTISGVESADAATYYCQQGYSRSDGEHVFGGGTEVVVKR , thanks.
Marked response: 0.000568

Exam item: koff lookup needed for 11G7 (antibody, human IgG1, kappa, V domains shown, Rabbit-human chimeric anti-ICAM1: rabbit VH and VL on human IgG1 and kappa constant regions) VH: QSVEESGGRLVTPGTPLTLTCTVSGFSLSDYYMSWVRQAPGKGLEWIGIISDSGSTYYASWAKGRFTISKTSSTTVDLKITSPTTEDTATYFCARDWSYDSSSGYYYYDMDLWGPGTLVTVSA VL: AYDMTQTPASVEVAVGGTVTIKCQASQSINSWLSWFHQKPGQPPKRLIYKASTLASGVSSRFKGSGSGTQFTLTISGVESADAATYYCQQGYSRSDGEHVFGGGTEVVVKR , thanks.
Marked response: 0.000624

Exam item: koff lookup needed for 8H1 (antibody, human IgG1, kappa, V domains shown, Rabbit-human chimeric anti-ICAM1: rabbit VH and VL on human IgG1 and kappa constant regions) VH: QSVEESGGRLVTPGTPLTLTCTASGFSLSNYYMSWVRQAPGKGLEWIGIISDSGSTYYASWAKGRFTISKTSTTVDLKITSPTTEDTATYFCARDWSYDSSSGYYYYDMDLWGPGTLVTVSA VL: GYDMTQTPASVEVAVGGTVTIKCQASQSINSWLAWFQHKPGQPPKRLIYKASTLASGVSSRFKGSGSGTQFTLTISGVESADAATYYCQQGYSRSDGEHVFGGGTEVVVKR , thanks.
Marked response: 0.00125

Exam item: koff lookup needed for 14B3 (antibody, human IgG1, kappa, V domains shown, Rabbit-human chimeric anti-ICAM1: rabbit VH and VL on human IgG1 and kappa constant regions) VH: QSLEESGGDLVKPGASLTLTCTASGFSSSSGYYICWVRQAPGKGLEWIACIGAGSGAAYYASWAKGRFTMSKTSSTTVTLQMTSLTAADTATYFCARGGFVVGGGYGGYCFNLWGPGTLVTVSS VL: AQVLTQTASSVSATVGGTVTISCQSSESVDVNNLAWYQQKPGQPPKLLIYSASTLASGVPSRFKGSGSGTQFTLTVSDLESADAATYYCAGGYSGNIFAFGGGTAVVVKR , thanks.
Marked response: 0.000596

Exam item: koff lookup needed for 11F2 (antibody, human IgG1, kappa, V domains shown, Rabbit-human chimeric anti-ICAM1: rabbit VH and VL on human IgG1 and kappa constant regions) VH: QSVEESGGGLVKPGGTLTLTCTVSGFSLSSHAMGWVRQAPGKGLEYIGIIGSSDRTYYASWAKGRFTISKTSTTVDLKITSPTTEDTATYFCVRDPYDSYDDGYRLWGPGTLVTVSS VL: AYDMTQTPASVEVAVGGTVTIKCQASQSIYRYLSWYQKKPGQRPKFLIYDASKLASGVPSRFEGSGSGTEFTLTISGAQSDDAATYYCQQAYSSGSIDNAFGGGTEVVVKR , thanks.
Marked response: 0.000224
